Biological target: T1, UNK ZnF1-6 (called full-length) (human, UniProt Q9C0B0 30-357)
T1 sequence: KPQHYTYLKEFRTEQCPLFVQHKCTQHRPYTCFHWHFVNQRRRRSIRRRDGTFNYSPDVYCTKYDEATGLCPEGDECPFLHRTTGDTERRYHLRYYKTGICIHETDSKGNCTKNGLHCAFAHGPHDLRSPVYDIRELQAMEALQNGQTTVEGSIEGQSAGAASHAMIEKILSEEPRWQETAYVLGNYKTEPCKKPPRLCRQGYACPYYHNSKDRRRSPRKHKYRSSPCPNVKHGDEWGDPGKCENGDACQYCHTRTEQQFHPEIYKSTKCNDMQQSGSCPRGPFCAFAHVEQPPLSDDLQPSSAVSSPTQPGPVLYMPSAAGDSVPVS
Experiment: nsRBNS (natural sequence RNA bind-n-seq); RBNS binding buffer (assumed for nsRBNS): 25 mM Tris pH 7.5, 150 mM KCl, 3 mM MgCl2, 0.01% Triton X-100, 500 ug/ml BSA, 20 U/ml SUPERase-In, 4 C; UNK is unkempt and MSI1 is Musashi-1; names of the RNAs are library labels; protein concentration not given here; high values mean tight binding
Over roughly 5,800 sequences, “enrichment r” has its median near 0.68; the highest 2% begin near 11. What follows is part of a selection rich in the highest values, with near analogues and random picks from the rest.
READOUT_KIND: binding signal (enrichment R)
Numbers only here, please. The scale is enrichment R.

- BINDER: "chr11:74334375:74334476:-|3pUTR|ENSG00000165434|msi1|FALSE|unique (ssRNA) RNA: GGGAGUUCUACAGUCCGACGAUCUUUUUGUUUUAUUUUUAAAAUGUGUAAAACAUCUUUUGUUUUAUAUGCUUUUAAGAAUGUAGAUUGUAAUUUAGGAAAUGGCAUAUAUUCUGCAAAGUGGUAUAAUGUUGUAUAUAUGAACAACAGAGGAUUGAGCAUCA"
  binding signal [enrichment R]: 3.22

Proceed to the following item.
input: Answer with the recorded binding signal for the binder listed here: chr10:62094764:62094865:+|3pUTR|ENSG00000150347|msi1|FALSE|unique (ssRNA) RNA: GGGAGUUCUACAGUCCGACGAUCGAUGAACUCCCCAACCCACUGUGCCCCUCCCGCAACACUACCAGUAGACUUUAGAACCAUAGUUAACUAAGUCUUUUACCUCUGAGAUACUUAAUUCUGGGAAAAUUGGUGACAAUUUUCCAACAGAGGAUUGAGCAUCA
output: 3.7

The measurements presented in this section are drawn from paper PMC12136788.
